Test system: RXRa homodimer (NR concentration 180 nM)
test_description: PBM binding z-score (relative to random genomic background probes); higher = stronger binding; sequences stand for … in GC…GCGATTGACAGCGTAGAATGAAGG
Could you please report measured PBM binding z-score for the items listed next?
One number for each entry.

| ordered_residues | PBM binding z-score |
| --- | --- |
| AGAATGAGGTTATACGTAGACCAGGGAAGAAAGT | 2.16 |
| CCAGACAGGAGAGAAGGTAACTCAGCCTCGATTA | 0.0715 |
| CCGACTGGGGCAGATAGGTTACCATACCATCCGG | 0.262 |
| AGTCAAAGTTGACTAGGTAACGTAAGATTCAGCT | 0.242 |
| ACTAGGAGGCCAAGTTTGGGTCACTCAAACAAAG | 1.08 |
| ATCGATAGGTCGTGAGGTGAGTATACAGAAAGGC | 2.15 |
| GCTCGGAGGTCAAGGTCAGAGCTTTGTCCGTAGA | 7.07 |
| GCGACTGGGGCAAAGCAGGTTACCATCAGGTTGG | 0.557 |

# return PBM binding z-score for each item in the list
1. CCTATTAGTTGAGCATAAGGGCAACCGAAGCTCG
2. TCGAGTAGGTTAGTTGGGGCATTCAGCCAACATA
3. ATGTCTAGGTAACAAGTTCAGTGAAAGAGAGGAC
4. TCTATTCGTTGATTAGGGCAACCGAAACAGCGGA
5. CGAACTAGGTCAAGGACAGTGTATCTCCGCACGC

[0.162, -0.226, 0.727, 0.477, 2.55]

----------
System: PPARg DBDmut:RXRa IVT, anti-PPARg (DBD mutation: PPARg1 K132A/R137A, NR concentration 270 nM, RXRa partner concentration 90 nM)
test_description: PBM binding z-score (relative to random genomic background probes); higher = stronger binding; sequences stand for … in GC…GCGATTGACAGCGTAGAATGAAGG
So I've got a bunch of sequences here, and I need their PBM binding z-score values.
Numbers only.

Known PBM binding z-score results, listed for orientation:
| ordered_residues | test_result |
| --- | --- |
| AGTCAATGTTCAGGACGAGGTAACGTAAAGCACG | 0.282 |
| AATACAGGGTCAACGTAGGCCAGAGTACGCACAG | 1.64 |
| CAAACTAGGTCAAGAGGCCAAAGTCCGCTTCCCG | 1.13 |

Batch lookup, PBM binding z-score per entry.
1. ATCTCTTGGTAAAAGTTCAGTGAATCCCGAGGAT
2. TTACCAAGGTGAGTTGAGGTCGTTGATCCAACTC
3. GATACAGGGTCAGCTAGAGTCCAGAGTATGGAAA

0.627
-0.517
0.791

Could I get PBM binding z-score for every one of these entries?
1. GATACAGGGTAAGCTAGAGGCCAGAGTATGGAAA
2. TCTTGTAAATCAGCAGGTTAAGAAAGCTGGCCAA

1. -0.118
2. -0.435

----------
Test system: PPARg DBDmut IVT, anti-PPARg (DBD mutation: PPARg1 K132A/R137A, NR concentration 270 nM)
test_description: PBM binding z-score (relative to random genomic background probes); higher = stronger binding; sequences stand for … in GC…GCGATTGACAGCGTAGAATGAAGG
PBM binding z-score vs 0.3: at or above is true, below is false.

Is it the case that "GGAACGAGAGCAAAGTTGATAGCATCTGTCGACG" has PBM binding z-score reaching or exceeding 0.3?
false

Could you verify whether the entry "TCGAGTAGGTTACCAATGGGGCAATCAGCTTTCT" shows PBM binding z-score of no less than 0.3?
false

Entry "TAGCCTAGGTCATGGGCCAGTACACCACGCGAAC" : is its PBM binding z-score no less than 0.3?
false

Kindly determine if PBM binding z-score recorded for "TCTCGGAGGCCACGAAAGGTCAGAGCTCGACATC" is above or exactly 0.3.
false

Hi team, for "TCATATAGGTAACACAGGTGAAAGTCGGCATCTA" , is the recorded PBM binding z-score at or above 0.3?
true

Would you say "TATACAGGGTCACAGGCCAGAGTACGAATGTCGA" shows PBM binding z-score at minimum 0.3?
true

Could you verify whether the entry "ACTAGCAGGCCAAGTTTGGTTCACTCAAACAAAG" shows PBM binding z-score of no less than 0.3?
false

----------
System: PPARg:RXRa 90nM:30nM, anti-RXR (NR concentration 90 nM, RXRa partner concentration 30 nM)
test_description: PBM binding z-score (relative to random genomic background probes); higher = stronger binding; sequences stand for … in GC…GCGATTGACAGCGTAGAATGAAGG
measured_metric: PBM binding z-score
Give bare numbers.

Field: example entries. Status: answers known.
| ordered_residues | PBM binding z-score |
| --- | --- |
| CGTCCAAGGTCAGAGAGGACAGTGAATGCCGAGT | 1.59 |
| ATATGTAGGTTAAGGGTCATCCAGGTTGGTTCGC | 12.3 |
| CTACCAAGGTGAACATGGTCGTTGATTACTATTC | 0.359 |
| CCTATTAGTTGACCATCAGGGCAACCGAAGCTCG | 0.121 |
| ATCTCTAGGTAACCAAGCTCAGTGAATGCCGAAC | 0.235 |
| TCTAGTTGGTCAAAGGTCACACATTCGAAATGCG | 10.5 |
| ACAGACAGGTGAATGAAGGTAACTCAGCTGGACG | 0.0876 |
| GCGACTGGGGCAAAACAGGTTACCATAAGGTTGG | -0.0458 |

I'm hoping you can list PBM binding z-score for every sequence here, please.
1. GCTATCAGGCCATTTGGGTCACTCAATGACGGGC
2. CGTCCAAGGTCAGCAAGTCAGTGAAAGCGACGTG
3. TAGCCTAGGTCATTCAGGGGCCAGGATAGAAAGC
4. CCTAGCTGGCCAATCTGGGTCACTCAAGGCTTGA

1. 0.276
2. 1.9
3. 1.26
4. 1.26

Consider the following items and state reported PBM binding z-score for each.
1. CGTCCAAGGTCAAAGGTCAGTTAAGAGATGACGG
2. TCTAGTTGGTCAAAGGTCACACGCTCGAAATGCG

1: 9.07; 2: 11.5

Need PBM binding z-score for each of these sequences.
1. CCAGACAGGTGAAATGTAACTCAGTCTGGTACGC
2. CCGAGTAGGTTATGGTGCATTCAGGCAACGGTGA
3. CCTACTGGGCCAAAAAGATCATTGATGCCGATAA
4. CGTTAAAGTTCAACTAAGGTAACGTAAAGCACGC
5. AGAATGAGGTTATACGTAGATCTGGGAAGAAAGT
6. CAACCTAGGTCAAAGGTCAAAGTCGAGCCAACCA
7. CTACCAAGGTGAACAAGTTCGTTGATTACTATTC

1. 1.07
2. 3.04
3. 0.372
4. 3.27
5. 1.38
6. 11.3
7. 0.145

----------
Tested on: RARg:RXRa (NR concentration 270 nM, RXRa partner concentration 90 nM)
test_description: PBM binding z-score (relative to random genomic background probes); higher = stronger binding; sequences stand for … in GC…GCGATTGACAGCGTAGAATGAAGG
measured_metric: PBM binding z-score
One number for each entry.

| ordered_residues | assayed_target | PBM binding z-score |
| --- | --- | --- |
| ACTATTAGTTGAGACGGGGGCAACCGATAGGTTG | RARg:RXRa (NR concentration 270 nM, RXRa partner concentration 90 nM) | 2.03 |
| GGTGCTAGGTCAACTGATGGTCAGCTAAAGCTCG | RARg:RXRa (NR concentration 270 nM, RXRa partner concentration 90 nM) | 5.3 |
| TCACCAAGGTGAAAGGTCGTTGATGCACGCCTTG | RARg:RXRa (NR concentration 270 nM, RXRa partner concentration 90 nM) | 4.15 |
| GCTAGTTGGTCAGTAAAAGGACACACACCGGTCG | RARg:RXRa (NR concentration 270 nM, RXRa partner concentration 90 nM) | 1.15 |
| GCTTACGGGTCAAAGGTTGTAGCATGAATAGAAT | RARg:RXRa (NR concentration 270 nM, RXRa partner concentration 90 nM) | 5.74 |

Provide PBM binding z-score for all items below, preserving their order.
1. CAAACTTGGTCAAGGTCAAAGTCGGTTTGTGCCA
2. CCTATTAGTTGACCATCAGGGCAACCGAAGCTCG

[4.46, 0.553]

----------
Test system: PPARa:RXRa (NR concentration 270 nM, RXRa partner concentration 90 nM)
test_description: PBM binding z-score (relative to random genomic background probes); higher = stronger binding; sequences stand for … in GC…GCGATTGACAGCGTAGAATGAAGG
Consider the following sequences; for each one, report its PBM binding z-score.
Give bare numbers.

The following sequences have reported results that may help.
| ordered_residues | assayed_target | measured_metric | test_result |
| --- | --- | --- | --- |
| ATCTCTAGGTAACAAGTTCAGTGGAAGAGAGGAC | PPARa:RXRa (NR concentration 270 nM, RXRa partner concentration 90 nM) | PBM binding z-score | 1.47 |
| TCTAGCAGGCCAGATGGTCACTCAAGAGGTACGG | PPARa:RXRa (NR concentration 270 nM, RXRa partner concentration 90 nM) | PBM binding z-score | -0.0486 |
| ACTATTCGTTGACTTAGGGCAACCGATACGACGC | PPARa:RXRa (NR concentration 270 nM, RXRa partner concentration 90 nM) | PBM binding z-score | 0.125 |

# input sequence: "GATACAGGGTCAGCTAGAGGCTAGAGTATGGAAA" ; wanted: its PBM binding z-score
4.51
